readoutLabel: melting point

Answered cases to consult:
C=CCc1nc2cc3c(cc2[n+]([O-])n1)CC(CO[Si](C)(C)C(C)(C)C)C3 (stereo not drawn)    49 to 52 °C
[O-][n+]1nc(NCCCO)nc2cc3c(cc21)CCC3    190 to 190.5 °C
CCN(CC)CCNc1nc2cc3c(cc2[n+]([O-])n1)CCO3    150 to 151 °C
[O-][n+]1nc(NCCN2CCCCCC2)nc2cc3c(cc21)CCC3    121 to 123 °C

Req: melting point lookup needed for [O-][n+]1nc(NCCO)[n+]([O-])c2cc3c(cc21)CCC3 , thanks.
Resp: 187 to 188 °C

Req: // returns reported melting point for input CCNc1nc2cc3c(cc2[n+]([O-])n1)CC(N(C)C)C3 (stereo not drawn)
Resp: 187 to 190 °C

###

Overview of recorded melting point for various molecules

For orientation, consider the following solved cases.
CC1CCCC(C)N1CCNc1nc2cc3c(cc2[n+]([O-])n1)CCC3 (centres unmarked)    173 to 175 °C
Nc1nc2ccc3c(c2[n+]([O-])n1)CCCO3    275 to 279 °C (dec.)
CN(C)CCNc1n[n+]([O-])c2cc3c(cc2[n+]1[O-])CCCCC3    131 to 133 °C
CCc1n[n+]([O-])c2cc3c(cc2[n+]1[O-])CC(CN1CCOCC1)C3 (centres unmarked)    164 to 165 °C
[O-][n+]1nc(NCCN2CCCCCC2)[n+]([O-])c2cc3c(cc21)CCC3    181 to 184 °C
[O-][n+]1nc(NCCN2CCOCC2)nc2cc3c(cc21)CCC3    178 to 179 °C
Nc1n[n+]([O-])c2cc3c(cc2[n+]1[O-])OCC3    > 300 °C (dec.)
CCNc1n[n+]([O-])c2cc3c(cc2[n+]1[O-])CC(CO)C3 (centres unmarked)    153 to 155 °C

Req: Can you look up the measured melting point of CN(C)CCNc1nc2cc3c(cc2[n+]([O-])n1)CCO3 for me?
Resp: 163 to 165 °C

Req: Which melting point value belongs to CN(C)CCNc1nc2cc3c(cc2[n+]([O-])n1)CCCC3 ?
Resp: 149 to 151 °C

Req: Sample COC1CN(CCCNc2nc3cc4c(cc3[n+]([O-])n2)CCC4)C1 — what was its melting point?
Resp: 101 to 102 °C
